# tested_system: T1, cynomolgus CCR8 (cynomolgus, UniProt G7NYJ2 1-355)
# T1 construct: whole, on cells
# T1 sequence (G7NYJ2 entry or part of it): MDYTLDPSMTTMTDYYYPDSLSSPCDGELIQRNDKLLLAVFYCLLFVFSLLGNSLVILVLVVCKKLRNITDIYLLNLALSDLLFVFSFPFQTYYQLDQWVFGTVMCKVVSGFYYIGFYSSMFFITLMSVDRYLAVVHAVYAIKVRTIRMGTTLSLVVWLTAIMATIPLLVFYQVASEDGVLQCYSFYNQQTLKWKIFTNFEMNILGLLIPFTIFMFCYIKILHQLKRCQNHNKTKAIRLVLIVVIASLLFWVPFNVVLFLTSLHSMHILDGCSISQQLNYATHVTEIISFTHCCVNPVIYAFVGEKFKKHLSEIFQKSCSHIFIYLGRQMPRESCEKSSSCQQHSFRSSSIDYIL
# experimental_details: FACS on ExpiCHO-S-cynomolgus CCR8 cells
measured_attribute: Max MFI (MFI)
Expressed in MFI, but write only the number.

Example entries and their recorded answers appear below.
Hu348-8 (antibody, V domains shown, humanized IgG) VH: EVQLVESGGGLVQPGGSLKLSCATSGFSFSNYRMHWLRQASGKGLEWVGVITVKSDNYGANYAASVKGRFTISRDDSKNTAYLQMNSLKTEDTAVYYCSSLGRVAYWGQGTLVTVSS VL: DIQMTQSPSSVSASVGDRVTITCKASQNVDTNVVWYQQKPGQSPKALIYSASSRYSGVPDRFSGSGSGTDFTLTISSLQPEDFATYYCQQHNSFPLTFGQGTKLEIK
267
Hu348-1 (antibody, V domains shown, humanized IgG) VH: EVQLVESGGGLVQPGGSLKLSCATSGFSFSNYRMHWLRQASGKGLEWVGVITVKSDNYGANYAASVKGRFTISRDDSKSSVYLQMNSLKTEDTAVYYCSSLGRVAYWGQGTLVTVSS VL: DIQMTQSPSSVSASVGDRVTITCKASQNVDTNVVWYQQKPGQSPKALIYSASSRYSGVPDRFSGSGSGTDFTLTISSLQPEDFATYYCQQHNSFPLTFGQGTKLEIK
336

Continue with the binder presented below.
Any idea what Max MFI was measured for Hu348-4 (antibody, human IgG1, V domains shown, humanized, human IgG1; also called Hu348-4 HuIgG1) VH: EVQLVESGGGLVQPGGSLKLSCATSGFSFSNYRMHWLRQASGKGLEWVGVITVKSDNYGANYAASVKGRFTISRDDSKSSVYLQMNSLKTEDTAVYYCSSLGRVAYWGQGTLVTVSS VL: DIQMTQSPSSVSASVGDRVTITCKASQNVDTNVVWYQQKPGQSPKALIYSASSRYSGVPSRFSGSGSGTDFTLTISSLQPEDFATYYCQQHNSFPLTFGQGTKLEIK ?
534
